# maps each entry to its melting point
Where a name gives a salt, the structure may show the parent alone.

Previously resolved entries follow.
[[record]]
compound = "N=C(NCCCCc1ccc(OCCOC2CCCCO2)cc1)NC(=O)c1nc(Cl)c(N)nc1N (stereo not drawn)"
outcome_measure = "melting point"
recorded_result = "161 °C"

[[record]]
compound = "CC(O)COc1ccc(CCCCNC(=N)NC(=O)c2nc(Cl)c(N)nc2N)cc1 (stereo not drawn) (as salt: hydrochloride)"
outcome_measure = "melting point"
recorded_result = "212 to 214 °C"

[[record]]
compound = "Cl.N=C(NCCCCc1ccc(OCC(O)C(O)CO)cc1)NC(=O)c1nc(Cl)c(N)nc1N (stereo not drawn)"
outcome_measure = "melting point"
recorded_result = "148 °C (dec.)"

[[record]]
compound = "Cl.Cl.N=C(NCCCCc1ccc(OCCN(C[C@@H](O)[C@@H](O)CO)C[C@@H](O)[C@@H](O)CO)cc1)NC(=O)c1nc(Cl)c(N)nc1N [drawing 67: O CH2 CH2 NR R^a,c (r18)]"
outcome_measure = "melting point"
recorded_result = "93 to 96 °C (dec.)"


-- ask Provide one value: measured melting point of N=C(NCCCCc1ccccc1OCC(O)CO)NC(=O)c1nc(Cl)c(N)nc1N (stereo not drawn) (as salt: hydrochloride) [drawing 69: R=CH2OH, Ortho]
-- reply 200 to 205 °C

-- ask Specify reported melting point for the compound shown: N=C(NCCCCc1ccc(N)cc1)NC(=O)c1nc(Cl)c(N)nc1N (as salt: hydrochloride) [drawing 60: R=NH2, N=0]
-- reply 195 to 200 °C

-- ask Supply reported melting point belonging to this compound: Cl.Cl.N=C(N)NCCOc1ccc(CCCCNC(=N)NC(=O)c2nc(Cl)c(N)nc2N)cc1 [drawing 64: X=NH—C(═NH)—NH2]
-- reply 223 to 230 °C

-- ask Please list melting point recorded for the compound N=C(NCCCCc1cccc(OCC(O)CO)c1)NC(=O)c1nc(Cl)c(N)nc1N (stereo not drawn) (as salt: hydrochloride) [drawing 69: R=CH2OH, Meta]
-- reply 91 to 93 °C

-- ask Provide measured melting point value, entry: N=C(NCCCCc1ccc(OCCN)cc1)NC(=O)c1nc(Cl)c(N)nc1N (as salt: hydrochloride) [drawing 61: R=NH2, n=2]
-- reply > 178 °C (dec.)

* * *

Structures can show the parent of a compound that is named as a salt.
outcome-measure: melting point

Field: example entries. Status: answers known.
[[record]]
compound = "COCCOCCOc1ccc(CCCCNC(=N)NC(=O)c2nc(Cl)c(N)nc2N)cc1 (as salt: hydrochloride) [drawing 50: n=2]"
outcome_measure = "melting point"
recorded_result = "110 to 125 °C"

[[record]]
compound = "N=C(N)c1ccc(CCCCNC(N)=NC(=O)c2nc(Cl)c(N)nc2N)cc1 [drawing 62: X=C═NH, Y=NH2]"
outcome_measure = "melting point"
recorded_result = "140 to 170 °C (dec.)"


-- ask Return value of melting point for input N=C(NCCCCc1cccc(OCCO)c1)NC(=O)c1nc(Cl)c(N)nc1N (as salt: hydrochloride) [drawing 69: R=H, Meta] , no commentary.
-- reply 161 to 163 °C (dec.)

Source: patent US10167266B2
